test system: LXRa:RXRa (NR concentration 270 nM, RXRa partner concentration 90 nM); assay: PBM binding z-score (relative to random genomic background probes); higher = stronger binding; sequences stand for … in GC…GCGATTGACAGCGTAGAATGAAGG
Lab note: compare PBM binding z-score against 0.7. Equal or greater, write y. Smaller, write n.

Check the entry "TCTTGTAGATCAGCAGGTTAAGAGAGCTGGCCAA" : does PBM binding z-score equal or exceed 0.7? n

Determine whether this sequence has PBM binding z-score no lower than 0.7: "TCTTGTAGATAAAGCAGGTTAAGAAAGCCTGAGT" n

Given the entry "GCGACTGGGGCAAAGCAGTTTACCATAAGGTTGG" , answer whether its PBM binding z-score meets or surpasses 0.7. n

Is reported PBM binding z-score greater than or equal to 0.7 here: "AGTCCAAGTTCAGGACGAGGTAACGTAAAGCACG" y

Textbook exercise: given the entry "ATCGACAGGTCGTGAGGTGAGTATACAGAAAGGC" , state whether its PBM binding z-score is greater than or equal to 0.7. y

Does the sequence "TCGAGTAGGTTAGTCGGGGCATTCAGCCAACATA" have recorded PBM binding z-score that is 0.7 or more? n

// inclusive: PBM binding z-score at least 0.7? input: "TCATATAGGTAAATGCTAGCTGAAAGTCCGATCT" n

Does PBM binding z-score meet or surpass 0.7 for "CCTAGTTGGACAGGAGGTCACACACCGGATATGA" ? y

Form field: PBM binding z-score at least 0.7? Entry: "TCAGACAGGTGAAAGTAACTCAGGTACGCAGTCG" y

Is it the case that "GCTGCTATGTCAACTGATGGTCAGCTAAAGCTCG" has PBM binding z-score reaching or exceeding 0.7? n

Determine whether this sequence has PBM binding z-score no lower than 0.7: "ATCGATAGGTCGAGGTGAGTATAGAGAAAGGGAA" n

Recorded values, source the supplement of paper PMC6555819.
